Test system: A549
Test: Antiproliferative activity against human A549 cells assessed as reduction in cell viability after 48 hrs by MTT assay
Format: functional, cell-based
Details: A549, 48 h
// reported IC50 per item
observable: IC50 (nM)

entry_smiles=COc1cc([C@@H]2c3cc4c(cc3[C@@H](Nc3ccc5[nH]ncc5c3)[C@H]3COC(=O)[C@H]23)OCO4)cc(OC)c1OC op== obs_value=200
entry_smiles=COc1cc([C@@H]2c3cc4c(cc3[C@@H](Nc3cccc5ncccc35)[C@H]3COC(=O)[C@H]23)OCO4)cc(OC)c1OC op=> obs_value=100000
entry_smiles=COc1cc([C@@H]2c3cc4c(cc3[C@@H](Nc3ccc5ncccc5c3)[C@H]3COC(=O)[C@H]23)OCO4)cc(OC)c1OC op== obs_value=300
entry_smiles=COc1cc([C@@H]2c3cc4c(cc3[C@@H](Nc3ccc5cc[nH]c5c3)[C@H]3COC(=O)[C@H]23)OCO4)cc(OC)c1OC op== obs_value=80
entry_smiles=COc1cc([C@@H]2c3cc4c(cc3[C@H](O)[C@H]3COC(=O)[C@H]23)OCO4)cc(OC)c1OC op== obs_value=2600
entry_smiles=COc1cc([C@@H]2c3cc4c(cc3[C@@H](Nc3ccc5[nH]ccc5c3)[C@H]3COC(=O)[C@H]23)OCO4)cc(OC)c1OC op== obs_value=500
entry_smiles=COc1cc([C@@H]2c3cc4c(cc3[C@@H](Nc3cccc5[nH]ncc35)[C@H]3COC(=O)[C@H]23)OCO4)cc(OC)c1OC op== obs_value=2600
entry_smiles=COc1cc([C@@H]2c3cc4c(cc3[C@@H](Nc3cccc5cccnc35)[C@H]3COC(=O)[C@H]23)OCO4)cc(OC)c1OC op== obs_value=1200

---

System: MCF7
Assay: Antiproliferative activity against human MCF7 cells assessed as reduction in cell viability after 48 hrs by MTT assay
Format: functional, cell-based
Details: MCF7, 48 h
pIC50: −log10 of the molar value.
observable: pIC50

entry_smiles=COC(=O)Nc1nc2cc(C(=O)c3cccs3)ccc2[nH]1 observable=pIC50 obs_value=6.70
entry_smiles=COc1cc([C@@H]2c3cc4c(cc3[C@@H](Nc3cccc5[nH]ccc35)[C@H]3COC(=O)[C@H]23)OCO4)cc(OC)c1OC observable=pIC50 obs_value=5.89
entry_smiles=COc1cc([C@@H]2c3cc4c(cc3[C@@H](Nc3cccc5cc[nH]c35)[C@H]3COC(=O)[C@H]23)OCO4)cc(OC)c1OC observable=pIC50 obs_value=5.32
entry_smiles=COc1cc([C@@H]2c3cc4c(cc3[C@@H](Nc3ccc5[nH]ccc5c3)[C@H]3COC(=O)[C@H]23)OCO4)cc(OC)c1OC observable=pIC50 obs_value=6.40

---

Tested on: A549
Experiment: Antiproliferative activity against human A549 cells assessed as reduction in cell viability after 48 hrs by MTT assay
Assay type: functional, cell-based
Settings: A549, 48 h
pIC50: −log10 of the molar value.
Quick reference: pIC50 of the listed items.
observable: pIC50

compound="COC(=O)Nc1nc2cc(C(=O)c3cccs3)ccc2[nH]1 [NOCODAZOLE]" obs_value=6.70
compound="COc1cc2c(c(OC)c1OC)-c1ccc(OC)c(=O)cc1[C@@H](NC(C)=O)CC2 [COLCHICINE]" obs_value=5.01
compound=COc1cc([C@@H]2c3cc4c(cc3[C@@H](Nc3cccc5[nH]ccc35)[C@H]3COC(=O)[C@H]23)OCO4)cc(OC)c1OC obs_value=5.62
compound=COc1cc([C@@H]2c3cc4c(cc3[C@@H](Nc3ccc5cccnc5c3)[C@H]3COC(=O)[C@H]23)OCO4)cc(OC)c1OC obs_value=5.64
compound=COc1cc([C@@H]2c3cc4c(cc3[C@@H](Nc3cccc5cn[nH]c35)[C@H]3COC(=O)[C@H]23)OCO4)cc(OC)c1OC obs_value=5.27
compound=COc1cc([C@@H]2c3cc4c(cc3[C@@H](Nc3ccc5cn[nH]c5c3)[C@H]3COC(=O)[C@H]23)OCO4)cc(OC)c1OC obs_value=6.00
compound=COc1cc([C@@H]2c3cc4c(cc3[C@@H](Nc3cccc5cc[nH]c35)[C@H]3COC(=O)[C@H]23)OCO4)cc(OC)c1OC obs_value=5.66

---

Assay: Binding affinity to alpha/beta tubulin complex (unknown origin)
Design: species or system Homo sapiens
pKi: −log10 of the molar value.
pKi vs 7: at or above is MET, below is NOT MET.

entry_smiles=COc1cc([C@@H]2c3cc4c(cc3[C@@H](Nc3cccc5cccnc35)[C@H]3COC(=O)[C@H]23)OCO4)cc(OC)c1OC classification="NOT MET"
entry_smiles=COc1cc([C@@H]2c3cc4c(cc3[C@@H](Nc3ccc5cc[nH]c5c3)[C@H]3COC(=O)[C@H]23)OCO4)cc(OC)c1OC classification=MET
entry_smiles=COc1cc([C@@H]2c3cc4c(cc3[C@@H](Nc3cccc5[nH]ncc35)[C@H]3COC(=O)[C@H]23)OCO4)cc(OC)c1OC classification=MET

---

Documented pIC50 across a set of compounds
Tested on: L02
Test: Antiproliferative activity against human HL7702 cells assessed as reduction in cell viability after 48 hrs by MTT assay
Type: functional, cell-based
Settings: L02, 48 h
pIC50: −log10 of the molar value.
observable: pIC50

entry_smiles=COc1cc([C@@H]2c3cc4c(cc3[C@@H](Nc3ccc5cc[nH]c5c3)[C@H]3COC(=O)[C@H]23)OCO4)cc(OC)c1OC obs_value=4.02
entry_smiles=COc1cc([C@@H]2c3cc4c(cc3[C@@H](Nc3cccc5[nH]ncc35)[C@H]3COC(=O)[C@H]23)OCO4)cc(OC)c1OC obs_value=4.38
entry_smiles=COc1cc([C@@H]2c3cc4c(cc3[C@@H](Nc3ccc5cccnc5c3)[C@H]3COC(=O)[C@H]23)OCO4)cc(OC)c1OC obs_value=4.79
entry_smiles=COc1cc([C@@H]2c3cc4c(cc3[C@@H](Nc3cccc5cn[nH]c35)[C@H]3COC(=O)[C@H]23)OCO4)cc(OC)c1OC obs_value=4.53

---

Assay: Binding affinity to alpha/beta tubulin complex (unknown origin)
Parameters: species or system Homo sapiens
Each entry below carries its reported Ki.
observable: Ki

entry_smiles=COc1cc([C@@H]2c3cc4c(cc3[C@@H](Nc3cccc5cn[nH]c35)[C@H]3COC(=O)[C@H]23)OCO4)cc(OC)c1OC obs_value="120 nM"
entry_smiles=COc1cc([C@@H]2c3cc4c(cc3[C@@H](Nc3ccc5[nH]ccc5c3)[C@H]3COC(=O)[C@H]23)OCO4)cc(OC)c1OC obs_value="100 nM"
entry_smiles=COc1cc([C@@H]2c3cc4c(cc3[C@@H](Nc3ccc5ncccc5c3)[C@H]3COC(=O)[C@H]23)OCO4)cc(OC)c1OC obs_value="110 nM"
entry_smiles=COc1cc([C@@H]2c3cc4c(cc3[C@@H](Nc3ccc5cccnc5c3)[C@H]3COC(=O)[C@H]23)OCO4)cc(OC)c1OC obs_value="120 nM"
entry_smiles=COc1cc([C@@H]2c3cc4c(cc3[C@@H](Nc3cccc5[nH]ccc35)[C@H]3COC(=O)[C@H]23)OCO4)cc(OC)c1OC obs_value="100 nM"
